Entry source: BindingDB's records for doi:10.1021/jm050205o

Record form. Attribute: pIC50. Fill in for each entry.
target or test system: UniProt:P04150
Sequence (P04150 whole entry): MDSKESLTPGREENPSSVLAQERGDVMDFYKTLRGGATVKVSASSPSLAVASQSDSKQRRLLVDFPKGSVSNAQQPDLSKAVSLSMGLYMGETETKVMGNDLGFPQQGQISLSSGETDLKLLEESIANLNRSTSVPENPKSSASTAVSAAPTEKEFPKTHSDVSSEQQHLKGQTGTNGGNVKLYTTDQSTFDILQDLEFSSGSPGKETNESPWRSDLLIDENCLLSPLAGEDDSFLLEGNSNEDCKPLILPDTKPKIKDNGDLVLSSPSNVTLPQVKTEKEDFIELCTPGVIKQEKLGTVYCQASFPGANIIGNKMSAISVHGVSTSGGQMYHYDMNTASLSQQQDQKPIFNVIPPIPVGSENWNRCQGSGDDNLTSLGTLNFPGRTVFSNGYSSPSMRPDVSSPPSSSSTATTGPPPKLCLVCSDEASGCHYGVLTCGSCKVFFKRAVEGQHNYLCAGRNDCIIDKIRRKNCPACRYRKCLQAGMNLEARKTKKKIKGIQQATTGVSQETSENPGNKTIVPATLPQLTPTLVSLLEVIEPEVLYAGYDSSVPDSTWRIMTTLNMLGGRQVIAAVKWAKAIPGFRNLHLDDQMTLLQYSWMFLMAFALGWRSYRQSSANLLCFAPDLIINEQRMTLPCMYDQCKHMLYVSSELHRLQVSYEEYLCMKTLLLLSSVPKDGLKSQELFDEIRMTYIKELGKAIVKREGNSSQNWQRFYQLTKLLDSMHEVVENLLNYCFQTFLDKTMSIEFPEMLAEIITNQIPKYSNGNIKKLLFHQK
Numbers only, as −log10 of the molar value.

Example compounds with recorded pIC50:
structure string | pIC50
Cc1c(NS(C)(=O)=O)cccc1N(Cc1ccc(Oc2ccc(Cl)c(OCC(=O)O)c2)cc1)Cc1ccc(F)cc1F | 6.30
CC#C[C@]1(O)CC[C@H]2[C@@H]3CCC4=CC(=O)CC[C@]4(Cc4ccc(C)cc4)C3=CC[C@@]21C | 7.37

Turning now to a further compound:
State its pIC50: Cc1c(NS(C)(=O)=O)cccc1N(Cc1ccc(Oc2ccc(F)c(OCC(=O)O)c2)cc1)Cc1ccc(F)cc1F
6.36
